Recorded values, source patent US11427581B2.

Kindly supply the reported IC50 values for the records listed here.
target: JAK2 (h) (Homo sapiens (Human), UniProt O60674); assay: In vitro activity assay of JAK2 kinase (radiometric 33P-ATP, Eurofins); conditions: recombinant human JAK2
Sequence (O60674 whole entry): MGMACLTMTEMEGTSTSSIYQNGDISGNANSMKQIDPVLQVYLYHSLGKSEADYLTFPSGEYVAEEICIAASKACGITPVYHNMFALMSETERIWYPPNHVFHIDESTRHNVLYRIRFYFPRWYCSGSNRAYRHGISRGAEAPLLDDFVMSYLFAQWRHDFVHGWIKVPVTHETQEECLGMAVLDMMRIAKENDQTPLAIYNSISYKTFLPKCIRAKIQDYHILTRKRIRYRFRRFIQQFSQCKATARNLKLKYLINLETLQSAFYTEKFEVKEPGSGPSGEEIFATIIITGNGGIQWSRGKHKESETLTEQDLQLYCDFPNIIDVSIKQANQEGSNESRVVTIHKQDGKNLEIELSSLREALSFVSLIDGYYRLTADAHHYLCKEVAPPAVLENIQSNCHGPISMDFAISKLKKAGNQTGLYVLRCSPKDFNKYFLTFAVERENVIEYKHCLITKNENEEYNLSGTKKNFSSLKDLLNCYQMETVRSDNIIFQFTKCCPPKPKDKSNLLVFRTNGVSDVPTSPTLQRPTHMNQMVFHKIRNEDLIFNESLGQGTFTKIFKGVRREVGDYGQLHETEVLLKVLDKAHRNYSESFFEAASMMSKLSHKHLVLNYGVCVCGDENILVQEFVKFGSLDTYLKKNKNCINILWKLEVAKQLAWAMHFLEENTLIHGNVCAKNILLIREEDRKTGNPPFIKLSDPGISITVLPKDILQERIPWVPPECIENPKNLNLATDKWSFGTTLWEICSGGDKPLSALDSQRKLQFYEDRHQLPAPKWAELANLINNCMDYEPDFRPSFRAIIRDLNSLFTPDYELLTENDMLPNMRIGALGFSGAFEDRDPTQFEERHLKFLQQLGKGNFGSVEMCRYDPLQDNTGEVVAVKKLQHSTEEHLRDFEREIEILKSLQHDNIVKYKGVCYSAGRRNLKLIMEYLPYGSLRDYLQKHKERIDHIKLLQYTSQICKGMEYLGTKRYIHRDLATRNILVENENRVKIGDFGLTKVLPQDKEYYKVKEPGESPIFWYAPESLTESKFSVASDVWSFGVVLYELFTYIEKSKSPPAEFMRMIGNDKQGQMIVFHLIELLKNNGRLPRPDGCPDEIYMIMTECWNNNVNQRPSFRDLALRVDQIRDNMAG
Report as a plain number; the unit nM is understood.

What measured IC50 goes with O=C(Nc1nc2cccc(C3=CC[C@H](NC(=O)[C@H]4CC4(F)F)CC3)n2n1)C1CC1 [Compound 3-4] ? 126

Next molecule: O=C(Nc1nc2cccc(C3=CCC(NC(=O)C4CC4(F)F)CC3)n2n1)C1CC1 (stereo not shown) [Compound 1-7] 239

Let us now turn to O=C(Nc1nc2cccc(C3=CCN(C(=O)C4CC4)CC3)n2n1)C1CC1 [Compound 5-4] 422

Next molecule: O=C(Nc1nc2cccc(C3=CCC(NC(=O)C4CC4)CC3)n2n1)C1CC1 (stereo not shown) [Compound 1-12] 1420

----------
Hi there, I'd appreciate the recorded IC50 for every entry that follows.
biological target: JAK3 (h) (Homo sapiens (Human)); assay: In vitro activity assay of JAK3 kinase (radiometric 33P-ATP, Eurofins); conditions: recombinant human JAK3
Sequence (P52333 whole entry): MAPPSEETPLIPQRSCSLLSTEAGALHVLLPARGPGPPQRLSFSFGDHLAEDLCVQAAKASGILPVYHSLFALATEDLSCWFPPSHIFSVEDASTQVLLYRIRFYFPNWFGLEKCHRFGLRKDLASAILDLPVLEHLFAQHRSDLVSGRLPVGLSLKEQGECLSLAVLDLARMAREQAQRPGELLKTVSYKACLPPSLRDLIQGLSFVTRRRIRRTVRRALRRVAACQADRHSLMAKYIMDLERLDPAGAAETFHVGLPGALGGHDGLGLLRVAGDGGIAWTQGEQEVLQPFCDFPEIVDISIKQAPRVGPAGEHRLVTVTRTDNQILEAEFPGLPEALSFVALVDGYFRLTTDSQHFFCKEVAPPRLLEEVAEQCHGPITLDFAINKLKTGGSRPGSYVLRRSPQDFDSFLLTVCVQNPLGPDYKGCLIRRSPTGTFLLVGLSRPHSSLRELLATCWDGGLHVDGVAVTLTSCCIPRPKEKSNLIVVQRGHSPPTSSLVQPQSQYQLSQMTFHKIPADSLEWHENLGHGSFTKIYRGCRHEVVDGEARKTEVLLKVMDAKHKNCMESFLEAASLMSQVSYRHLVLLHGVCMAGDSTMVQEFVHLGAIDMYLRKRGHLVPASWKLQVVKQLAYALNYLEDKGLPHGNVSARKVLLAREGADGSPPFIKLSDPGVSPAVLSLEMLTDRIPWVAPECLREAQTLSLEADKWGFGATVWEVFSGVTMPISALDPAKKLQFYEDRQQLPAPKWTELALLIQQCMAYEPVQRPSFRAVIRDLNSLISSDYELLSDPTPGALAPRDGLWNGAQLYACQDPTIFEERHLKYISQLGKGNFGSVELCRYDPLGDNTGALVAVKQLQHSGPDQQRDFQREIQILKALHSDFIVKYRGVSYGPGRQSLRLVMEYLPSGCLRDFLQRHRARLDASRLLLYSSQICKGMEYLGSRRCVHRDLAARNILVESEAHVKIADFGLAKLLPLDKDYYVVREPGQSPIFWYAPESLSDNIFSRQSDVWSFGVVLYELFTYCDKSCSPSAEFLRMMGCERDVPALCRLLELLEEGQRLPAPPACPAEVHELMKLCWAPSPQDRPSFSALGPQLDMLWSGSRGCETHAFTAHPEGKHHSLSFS
Answer in µM, number only, no unit symbol.

Which IC50 is reported with JAK3 (h) (Homo sapiens (Human)) for this entry: O=C(Nc1nc2cccc(C3CCC(NC(=O)C4CC4(F)F)CC3)n2n1)C1CC1 (centres unmarked) ? 2.05

Now the compound O=C(Nc1nc2cccc(C3=CC[C@H](NC(=O)[C@H]4CC4(F)F)CC3)n2n1)C1CC1 2.55

Subsequent entry: O=C(Nc1nc2cccc(C3CCC(NC(=O)C4(F)CC4)CC3)n2n1)C1CC1 (centres unmarked) 4.38

What about this compound? O=C(Nc1nc2cccc(C3=CCC(NC(=O)C4CC4(F)F)CC3)n2n1)C1CC1 (centres unmarked) 3.11

Input O=C(Nc1nc2cccc(C3=CC[C@@H](NC(=O)[C@@H]4CC4(F)F)CC3)n2n1)C1CC1 5.52

Now consider O=C(Nc1nc2cccc(C3CCC(NC(=O)[C@H]4CC4(F)F)CC3)n2n1)C1CC1 (single isomer, unassigned) [Compound 8-2] . 0.957

----------
experiment: Pharmacokinetic (PK) assay in rat; type: in vivo; details: blood, po; male SD rat; tail vein and gavage groups, route of the parameter and dose not given; read-out: Cmax (peak concentration)
observation-type: Cmax

Recorded Cmax of O=C(Nc1nc2cccc(C3CCC(NC(=O)C4(F)CC4)CC3)n2n1)C1CC1 (stereo not shown) , please. 24.8 µM

----------
assay: Pharmacokinetic (PK) assay in rat; format: in vivo; conditions: blood, po; male SD rat; tail vein and gavage groups, route of the parameter and dose not given; read-out: AUC0-inf
observation-type: AUC0-inf (µM·h)
Entry rule: numbers only, all in µM·h.

Given the entry O=C(Nc1nc2cccc(C3CCC(NC(=O)C4(F)CC4)CC3)n2n1)C1CC1 (stereo not shown) , report its measured AUC0-inf. 85.8

----------
test: Pharmacokinetic (PK) assay in rat; format: in vivo; settings: blood, po; male SD rat; gavage vs tail vein; read-out: Bioavailability
observation-type: Bioavailability (%)
Your answer is read as %, so omit the unit and give the number.

Name the reported Bioavailability value associated with the compound O=C(Nc1nc2cccc(C3CCC(NC(=O)C4(F)CC4)CC3)n2n1)C1CC1 (stereo not shown) 89.8

----------
Answer each item with its documented IC50.
biological target: JAK2 (h) (Homo sapiens (Human), UniProt O60674); test: In vitro activity assay of JAK2 kinase (radiometric 33P-ATP, Eurofins); details: recombinant human JAK2
Provide the reading as a plain figure in nM.

Can you look up the measured IC50 of O=C(Nc1nc2cccc(C3CCC(NC(=O)C4(F)CC4)CC3)n2n1)C1CC1 (stereo not shown) for me? 360

Also O=C(Nc1nc2cccc(C3CCC(NC(=O)[C@H]4CC4(F)F)CC3)n2n1)C1CC1 (single isomer, unassigned) , if possible. 3750

Next compound up: O=C(Nc1nc2cccc(C3=CC[C@@H](NC(=O)[C@@H]4CC4(F)F)CC3)n2n1)C1CC1 141

Param item: O=C(Nc1nc2cccc(C3CCC(NC(=O)[C@@H]4CC4(F)F)CC3)n2n1)C1CC1 (single isomer, unassigned) [Compound 8-3] 5770

# iterate: O=C(Nc1nc2cccc(C3=CCN(C(=O)C4(F)CC4)C3)n2n1)C1CC1 1120

Continue with O=C(Nc1nc2cccc(C3CCC(NC(=O)[C@@H]4CC4(F)F)CC3)n2n1)C1CC1 (single isomer, unassigned) [Compound 8-1] 861
